System: Acinetobacter baumannii strains
Protocol Text: Antibiotic susceptibility test (CLSI disk diffusion test method, read per CLSI 2016); note: key: ‘S’ means susceptible; ‘I’ means intermediate; ‘R’ means resistant
Format: cell-based
Experimental Setup: host strain YMC14/01/P224
Measurement Name: antibiotic susceptibility class

CN(C)c1ccc(O)c2c1C[C@H]1C[C@H]3[C@H](N(C)C)C(O)=C(C(N)=O)C(=O)[C@@]3(O)C(O)=C1C2=O; S
C[C@H]1COc2c(N3CCN(C)CC3)c(F)cc3c(=O)c(C(=O)O)cn1c23; R
CC(C)(O/N=C(\C(=O)N[C@@H]1C(=O)N2C(C(=O)[O-])=C(C[n+]3ccccc3)CS[C@H]12)c1csc(N)n1)C(=O)O; R
